Catalogue of pIC50 readings, one per entry.
test system: HepG2; experiment: Compound was tested for inhibition of cholesterol biosynthesis in HepG2 cells from [14C]- acetate; format: functional, cell-based; details: Homo sapiens
pIC50: −log10 of the molar value.

compound	tested.system	operator.symbol	pIC50
CC(=O)N1CC[C@H]2[C@H](C)[C@@H](O)CC[C@]2(C)C1	HepG2	<	4.00
CCCCCCCCCCCC(=O)N1CC[C@H]2[C@H](C)[C@@H](O)CC[C@]2(C)C1	HepG2	=	6.15
CC(C)CCCC(C)CCCC(C)N1CC[C@H]2[C@H](C)[C@@H](O)CC[C@]2(C)C1 (some centres undefined)	HepG2	=	7.15
CCCCCCCCCCCC[S+]([O-])N1CC[C@H]2[C@H](C)[C@@H](O)CC[C@]2(C)C1 (some centres undefined)	HepG2	=	5.55
CCCCCCCCCCCCN1CC[C@H]2[C@H](C)[C@@H](O)CC[C@]2(C)C1	HepG2	=	8.00
C[C@@H]1[C@@H](O)CC[C@]2(C)CNCC[C@@H]12	HepG2	=	4.72
CC1(C)[C@@H](O)CC[C@]2(C)CCCC[C@@H]12	HepG2	=	4.55
CCCCCCCCCCCCS(=O)(=O)N1CC[C@H]2[C@H](C)[C@@H](O)CC[C@]2(C)C1	HepG2	=	4.28
CCCCCCCCCCCC(=S)N1CC[C@H]2[C@H](C)[C@@H](O)CC[C@]2(C)C1	HepG2	=	5.70
